EXPERIMENTAL SYSTEM: Tumor necrosis factor (Homo sapiens, UniProt P01375)
Sequence (P01375 whole entry): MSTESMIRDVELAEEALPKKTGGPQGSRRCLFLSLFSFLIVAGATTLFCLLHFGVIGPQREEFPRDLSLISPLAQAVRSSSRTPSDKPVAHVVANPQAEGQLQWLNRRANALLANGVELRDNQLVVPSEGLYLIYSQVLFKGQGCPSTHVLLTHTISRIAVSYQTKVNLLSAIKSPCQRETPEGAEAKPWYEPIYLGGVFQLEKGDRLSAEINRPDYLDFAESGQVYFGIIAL
ASSAY METHOD TEXT: Inhibitory activity of TNF-alpha was measured in the supernatant of human PBMCs stimulated with LPS.
Assay type: functional
Can you tell me pIC50 for the items I'm about to list?
The scale used: pIC50 is minus the common logarithm of the concentration in molar units.

Quickly give me recorded pIC50 for COC(=O)CC(c1ccc(OC)c(OC)c1)N1C(=O)c2ccc([N+](=O)[O-])cc2C1=O (centres undefined)
4.47

Quickly give me recorded pIC50 for COC(=O)CC(c1ccc(OC)c(OC)c1)N1C(=O)c2cc(Cl)c(Cl)cc2C1=O (centres undefined)
4.89

Quickly give me recorded pIC50 for COC(=O)CC(c1ccc(OC)c(OC)c1)N1C(=O)c2cccc([N+](=O)[O-])c2C1=O (centres undefined)
4.19

Quickly give me recorded pIC50 for COC(=O)CC(c1ccc(OC)c(OC)c1)N1C(=O)c2c(Cl)ccc(Cl)c2C1=O (centres undefined)
5.10

====

EXPERIMENTAL SYSTEM: Tumor necrosis factor (Homo sapiens, UniProt P01375)
ASSAY METHOD TEXT: Inhibition of TNF-alpha production in LPS stimulated human PBMCs
Assay type: functional
PARAMETER: IC50 (µM)
Use µM as the unit, but write only the number.

Quickly give me recorded IC50 for CCCOc1ccc(C(CC(N)=O)N2C(=O)c3ccccc3C2=O)cc1OCCC (configuration not stated)
55

Quickly give me recorded IC50 for COC(=O)CC(c1ccc(OC)c(OC)c1)N1C(=O)c2cccc(N)c2C1=O (configuration not stated)
0.45

Quickly give me recorded IC50 for COc1ccc(C(CC(=O)NCc2ccccc2)N2C(=O)c3ccccc3C2=O)cc1OC (configuration not stated)
84

Quickly give me recorded IC50 for N#Cc1ccc(C(CC(N)=O)N2C(=O)c3ccccc3C2=O)cc1 (configuration not stated)
150

Quickly give me recorded IC50 for COc1ccc(C(CCO)N2C(=O)c3ccccc3C2=O)cc1OC (configuration not stated)
7.5

Quickly give me recorded IC50 for COc1ccc(C(CC(=O)O)N2C(=O)c3ccccc3C2=O)cc1OC (configuration not stated)
60

Quickly give me recorded IC50 for COC(=O)CC(c1ccc(OC)c(OC)c1)N1C(=O)c2ccc(N)cc2C1=O (configuration not stated)
0.38

Quickly give me recorded IC50 for COC(=O)CC(c1ccc(OC)c(OC)c1)N1C(=O)c2cc3ccccc3cc2C1=O (configuration not stated)
4.7

Quickly give me recorded IC50 for COC(=O)CC(c1ccc(OC)c(OC)c1)N1C(=O)c2cccc(O)c2C1=O (configuration not stated)
15

Quickly give me recorded IC50 for COc1ccc(C(CC(N)=O)N2C(=O)c3ccccc3C2=O)cc1 (configuration not stated)
62

Quickly give me recorded IC50 for NC(=O)CC(c1ccc(Cl)c(Cl)c1)N1C(=O)c2ccccc2C1=O (configuration not stated)
70

Quickly give me recorded IC50 for NC(=O)CC(c1ccc2ccccc2c1)N1C(=O)c2ccccc2C1=O (configuration not stated)
51

Quickly give me recorded IC50 for COc1cc(OC)cc(C(CC(N)=O)N2C(=O)c3ccccc3C2=O)c1 (configuration not stated)
39

Quickly give me recorded IC50 for CNC(=O)CC(c1ccc(OC)c(OC)c1)N1C(=O)c2ccccc2C1=O (configuration not stated)
12

Quickly give me recorded IC50 for COC(=O)CC(c1ccc(OC)c(OC)c1)N1C(=O)c2ccccc2C1=O (configuration not stated)
2.9

Quickly give me recorded IC50 for COc1ccc(C(CC(N)=O)N2C(=O)c3ccccc3C2=O)cc1OC (configuration not stated)
12

Quickly give me recorded IC50 for COc1cccc(C(CC(N)=O)N2C(=O)c3ccccc3C2=O)c1 (configuration not stated)
120

Quickly give me recorded IC50 for CCOc1ccc(C(CC(N)=O)N2C(=O)c3ccccc3C2=O)cc1OCC (configuration not stated)
5.6

Quickly give me recorded IC50 for CCNC(=O)CC(c1ccc(OC)c(OC)c1)N1C(=O)c2ccccc2C1=O (configuration not stated)
53

Quickly give me recorded IC50 for NC(=O)CC(c1ccccc1)N1C(=O)c2ccccc2C1=O (configuration not stated)
260

Quickly give me recorded IC50 for COC(=O)CC(c1ccc(OC)c(OC)c1)N1C(=O)c2ccc(C(C)(C)C)cc2C1=O (configuration not stated)
4.2

Quickly give me recorded IC50 for N#Cc1cccc(C(CC(N)=O)N2C(=O)c3ccccc3C2=O)c1 (configuration not stated)
89
